- measured on: BRD4 (Homo sapiens, UniProt O60885)
- Construct: full-length BRD4 fused to NanoLuc at N terminus
- method notes: NanoBRET BRD4, transient BRD4-NanoLuc in HEK293T cells
- assay conditions: intact HEK293 cells
Each record is given yes (1) if its reported IC50 is strictly below 600 nM. Records at or above 600 nM are given no (0).

Example results:
Cc1sc2c(c1C)C(c1ccc(Cl)cc1)=NC(CC(=O)NCCOCCn1cc(COCC3CN(CC(=O)N4CCC(C)CC4)C(=O)C4CCCC3N4S(=O)(=O)c3cc(Cl)cc(Cl)c3)nn1)c1nnc(C)n1-2 (stereo not shown)	no (0)
C=C[C@H]1CN(Cc2ccccn2)C(=O)[C@@H]2CCC[C@H]1N2S(=O)(=O)c1ccc(-c2cn(CCOCCOCCNC(=O)C[C@@H]3N=C(c4ccc(Cl)cc4)c4c(sc(C)c4C)-n4c(C)nnc43)nn2)c(Cl)c1	yes (1)
Cc1sc2c(c1C)C(c1ccc(Cl)cc1)=NC(CC(=O)NCCOCCOCCn1cc(C3CN(Cc4ccccn4)C(=O)C4CCCC3N4S(=O)(=O)c3cc(Cl)cc(Cl)c3)nn1)c1nnc(C)n1-2 (stereo not shown)	no (0)
Cc1sc2c(c1C)C(c1ccc(C#CCNC(=O)COCCn3cc(C4CN(Cc5ccccn5)C(=O)C5CCCC4N5S(=O)(=O)c4cc(Cl)cc(Cl)c4)nn3)cc1)=NC(CC(=O)OC(C)(C)C)c1nnc(C)n1-2 (stereo not shown)	yes (1)
Cc1sc2c(c1C)C(c1ccc(Cl)cc1)=NC(CC(=O)N1CCN(CCCn3cc(COCC4CN(Cc5ccccn5)C(=O)C5CCCC4N5S(=O)(=O)c4cc(Cl)cc(Cl)c4)nn3)CC1)c1nnc(C)n1-2 (stereo not shown)	no (0)
Cc1sc2c(c1C)C(c1ccc(Cl)cc1)=NC(CC(=O)N1CCC(CN3CCC(n4cc(C5CN(Cc6ccccn6)C(=O)C6CCCC5N6S(=O)(=O)c5cc(Cl)cc(Cl)c5)nn4)CC3)CC1)c1nnc(C)n1-2 (stereo not shown)	no (0)
C=CC1CN(Cc2ccccn2)C(=O)C2CCCC1N2S(=O)(=O)c1cc(Cl)cc(-c2cn(CCOCCOCCNC(=O)CC3N=C(c4ccc(Cl)cc4)c4c(sc(C)c4C)-n4c(C)nnc43)nn2)c1 (stereo not shown)	no (0)
Cc1sc2c(c1C)C(c1ccc(Cl)cc1)=NC(CC(=O)NCCOCCn1cc(COCC3CN(Cc4ccccn4)C(=O)C4CCCC3N4S(=O)(=O)c3cc(Cl)cc(Cl)c3)nn1)c1nnc(C)n1-2 (stereo not shown)	no (0)
Cc1sc2c(c1C)C(c1ccc(Cl)cc1)=NC(CC(=O)NCCOCCn1cc(COC(C)C3CN(Cc4ccccn4)C(=O)C4CCCC3N4S(=O)(=O)c3cc(Cl)cc(Cl)c3)nn1)c1nnc(C)n1-2 (stereo not shown) [a1f]	yes (1)

Enquiry: Dear colleague, could you confirm whether IC50 of Cc1sc2c(c1C)C(c1ccc(Cl)cc1)=NC(CC(=O)NCCOCCn1cc(COC(C)C3CN(Cc4ccccn4)C(=O)C4CCCC3N4S(=O)(=O)c3cc(Cl)cc(Cl)c3)nn1)c1nnc(C)n1-2 (stereo not shown) [a1e] falls below 600 nM? Thanks.
Return: yes (1)

---

# maps each entry to its pKd
- measured on: BRD2BD1 (Homo sapiens)
- Construct: to the isolated BD1 and BD2 domains of BRD2, BRD3 and BRD4
- Sequence (P25440 74-180 limits assumed): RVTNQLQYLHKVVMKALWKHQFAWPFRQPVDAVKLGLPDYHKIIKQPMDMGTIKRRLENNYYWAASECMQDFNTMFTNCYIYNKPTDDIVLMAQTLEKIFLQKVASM
- method notes: competitive FP assay, BRD2 BD1 -/+ FKBP12
- Assay type: binding
- assay conditions: 15 µM FKBP12; read-out: Binding to BRD2BD1 + FKBP12 Kd
Formally, pKd is defined as -log10 of the concentration c, with c in mol/L.

Enquiry: Using the record for Cc1sc2c(c1C)C(c1ccc(Cl)cc1)=NC(CC(=O)N1CCC3(CC1)CC(n1cc(C4CN(Cc5ccccn5)C(=O)C5CCCC4N5S(=O)(=O)c4cc(Cl)cc(Cl)c4)nn1)C3)c1nnc(C)n1-2 (stereo not shown) [a13c] , report its pKd.
Return: 7.00

Enquiry: Using the record for Cc1sc2c(c1C)C(c1ccc(C#CCNC(=O)COCCn3cc(C4CN(Cc5ccccn5)C(=O)C5CCCC4N5S(=O)(=O)c4cc(Cl)cc(Cl)c4)nn3)cc1)=NC(CC(=O)OC(C)(C)C)c1nnc(C)n1-2 (stereo not shown) , report its pKd.
Return: 8.05

Enquiry: Using the record for Cc1sc2c(c1C)C(c1ccc(Cl)cc1)=NC(CC(=O)NCCOCCn1cc(COCC3CN(Cc4ccccn4)C(=O)C4CCCC3N4S(=O)(=O)c3cc(Cl)cc(Cl)c3)nn1)c1nnc(C)n1-2 (stereo not shown) , report its pKd.
Return: 7.44

Enquiry: Using the record for Cc1sc2c(c1C)C(c1ccc(Cl)cc1)=NC(CC(=O)NCCOCCn1cc(COCC3CN(C(C)c4ccccn4)C(=O)C4CCCC3N4S(=O)(=O)c3cc(Cl)cc(Cl)c3)nn1)c1nnc(C)n1-2 (stereo not shown) , report its pKd.
Return: 7.42
